I'd be grateful if you could share measured photoluminescence quantum yield for these entries.
- Test Name: photoluminescence quantum yield (fraction); solvent given as SMILES
- Settings: in CN(C)C=O
Answers are plain numbers.

Dear reader, for each entry below, please note its photoluminescence quantum yield.
1. Nc1ccc2c(-c3ccccc3C(=O)[O-])c3ccc(=[NH2+])cc-3oc2c1
2. CCCCCCCCCCCCOc1cc2c(cc1OCCCCCCCCCCCC)C1=C3C(=O)N4C=Cc5cc(OCCCCCCCCCCCC)c(OCCCCCCCCCCCC)cc5C4=C3C(=O)N1C=C2
3. O=C1/C(=C2\Sc3ccccc3C2=O)Sc2ccccc21
4. Cc1ccc(C2CC(c3ccc(O)cc3)=NN2c2ccc(S(N)(=O)=O)cc2)cc1 (configuration not stated)
5. CCCCCCC(CCCCCC)N1C(=O)c2cccc3c(-c4ccc(OC)cc4)ccc(c23)C1=O
6. CC1=[N+]2C(=C(c3ccc(-c4c5ccccc5c(-c5ccccc5)c5ccccc45)cc3)c3ccc(C)n3[B-]2(F)F)C=C1

0.84
0.7
0.353
0.76
0.82
0.002

Below are some compounds; for each one, tell me its photoluminescence quantum yield.
1. O=C1C2=C3c4ccsc4C=CN3C(=O)C2=C2c3ccsc3C=CN12
2. COC(=O)c1ccc2c3ccc(C(=O)OC)c4c(C(=O)OC)ccc(c5ccc(C(=O)OC)c1c25)c43
3. O=C(O)COc1ccc2[nH]c3c(c2c1)CCCC3=O
4. C[Si](C)(C)O[Si]1(O[Si](C)(C)C)n2c3c4ccccc4c2/N=C2N=C(/N=c4/c5ccccc5/c(n41)=N/C1=NC(=N\3)/c3ccccc31)c1ccccc1\2
5. CCCCCCCN1C(=CC2=C([O-])C(=CC3=[N+](CCCCCCC)c4ccccc4C3(C)C)C2=C(C#N)C#N)Sc2ccccc21
6. COc1ccc(-c2csc(/C(C#N)=N\Nc3ccc(C#N)cc3)n2)cc1
7. CCC1=C(C)C2=C(c3c4ccccc4cc4ccccc34)c3c(C)c(CC)c(C)n3[B-](F)(F)[N+]2=C1C

1. 0.73
2. 0.95
3. 0.07
4. 0.42
5. 0.16
6. 0
7. 0.705

Provide reported photoluminescence quantum yield for each item, in the same order as listed.
1. O=Cc1cc(O)ccc1O
2. CCCCN1C(=O)C(=C/C=C/C=C/C=C2N(CCCC)c3ccccc3N2CCCC)C(=O)N(CCCC)C1=S
3. COc1ccc([C@@H]2C[C@](O)(c3ccccn3)C[C@](O)(c3ccccn3)[C@H]2C(=O)c2ccc(N(c3ccccc3)c3ccccc3)cc2)cc1
4. COC(=O)c1cc(=O)n(C)c2cc(-c3cc4c5c(c3)CCCN5CCC4)sc12
5. CCCCCCC(CCCCCC)N1C(=O)c2cccc3c(-c4ccc(OC)c5cccc(C)c45)ccc(c23)C1=O

[0.06, 0.127, 0.03, 0.1, 0.055]

###

Give photoluminescence quantum yield for every item shown.
- Test Name: photoluminescence quantum yield (fraction); solvent given as SMILES
- Settings: in CCCCCO

# Compound, Val
data = [
    ("COC(=O)C(Cc1ccc2oc(-c3ccc(-n4c5ccccc5c5ccccc54)cc3)nc2c1)NC(=O)OC(C)(C)C (stereo not given)", 0.77),
    ("ClC(Cl)=C1c2ccccc2C(C2(Cl)c3ccccc3C(=C(Cl)Cl)c3ccccc32)c2ccccc21 (stereo not given)", 0.25),
    ("O=C1CCCC2=C1CC1=C(CCCC1=O)N2NC(=O)c1ccccc1", 0.42),
    ("O=C1c2ccccc2-c2ccc(N3CCN(c4ccccc4)CC3)c3cccc1c23", 0.017),
]

Read the next record carefully.
For the compound Cc1ccccc1C(=O)NN1C2=C(CC3=C1CC(C)(C)CC3=O)C(=O)CC(C)(C)C2 , what photoluminescence quantum yield is on record?
0.5

###

- Test Name: photoluminescence quantum yield (fraction); solvent given as SMILES
- Settings: in ClCCl
Please respond with reported photoluminescence quantum yield for every item in the list.

Examples from the recorded data:
# Compound, photoluminescence quantum yield
rows = [
    ("Cc1ccccc1-c1c2ccc(=[N+]3CCCCC3)cc-2oc2cc(N3CCCCC3)ccc12", 0.89),
    ("C(#Cc1ncnc2ccccc12)c1ccc(N(c2ccccc2)c2ccccc2)cc1", 0.03),
    ("CN(C)c1cc(-c2ccc(C#Cc3ccncc3)cc2)cc2ccccc12", 0.83),
    ("COc1ccc(-c2c3ccccc3c(-c3ccc(OC)cc3)c3cc4sc(C)cc4cc23)cc1", 0.52),
    ("c1ccc2c(c1)ccc1c3ccccc3ccc21", 0.12),
]

// each compound listed below needs its photoluminescence quantum yield
1. CCn1c2sccc2c2c3nsnc3c3c4ccsc4n(CC)c3c21
2. COc1ccc(C#Cc2ccc(C#N)cc2)cc1OC
3. Nc1ccc2c(ccc3[n+]2[B-](F)(F)n2c-3cc3c4ccccc4c4ccccc4c32)c1
4. O=c1c2ccccc2n(-c2ccc(-c3ccc(-n4c5ccccc5c5ccccc54)cc3)cc2)c2ccccc12
5. COc1cc(C=O)cc(-c2[nH]c(=O)n3c2-c2ccccc2C3=O)c1O
6. C[Si]1(C)c2cc(-c3ccccc3)ccc2C=Cc2ccc(-c3ccccc3)cc21
7. Oc1ccccc1-c1nc(-c2ccccc2)c2ccccn12
8. COC(=O)C1=C(C(=O)OC)C2(c3ccccc3-c3ccccc32)[C@@H](c2ccc(C)cc2)C=C2c3cc(OC)c(OC)cc3CCN21

1: 0.34; 2: 0.22; 3: 0.81; 4: 0.28; 5: 0.93; 6: 0.9; 7: 0.144; 8: 0.00491

// batch mode: one photoluminescence quantum yield value per listed entry
1. C(=C\c1ncnc2ccccc12)/c1ccc(N(c2ccccc2)c2ccccc2)cc1
2. CC1=CC(C)=[N+]2C1=Cc1c3ccccc3c(C#Cc3ccccc3)n1[B-]2(F)F

1: 0.25; 2: 0.89

Hi, could you look up photoluminescence quantum yield for each item in my list?
1. C(S/C=C/c1ccc(-c2ccc(/C=C/SC=C3CCCCC3)cc2)cc1)=C1CCCCC1
2. CCOC(=O)c1ccccc1-c1c2ccc(=[N+](CC)CC)cc-2oc2c1oc1cc(N)ccc12
3. O=C1c2cccc3cc4ccccc4c(c23)C(=O)N1Cc1ccccn1
4. Oc1ccc(-c2cccs2)cc1-c1nc2ccccc2s1
5. CCCCCCOc1cc(C=C(C#N)C#N)c(OCCCCCC)cc1C=C(C#N)C#N
6. COc1cc2c3sc4ccccc4c3c3cncnc3c2c(OC)c1OC
7. CCCCCCCCCCCCCCCCCCOC(=O)/C=C/C1=CC2=C(c3c(C)cc(C)cc3C)c3cc(/C=C/C(=O)OCCCCCCCCCCCCCCCCCC)cn3[B-](F)(F)[N+]2=C1

1. 0.238
2. 0.732
3. 0.93
4. 0.0242
5. 0.868
6. 0.09
7. 0.34

Return reported photoluminescence quantum yield values for all items listed beneath this line.
1. CC(C)(C)C1CCC(=CS/C=C/c2ccc(-c3ccc(/C=C/SC=C4CCC(C(C)(C)C)CC4)cc3)cc2)CC1 (stereo not given)
2. CCN(CC)c1ccc2cc(-c3nc4cc(C(=O)Nc5ccc(C)cc5[N+](=O)[O-])ccc4o3)c(=O)oc2c1
3. c1ccc(-c2cccc3ncc(-c4ccccc4)n23)cc1
4. COc1ccc2cc(/C=C/C3=CC(c4ccccc4)=[O+][B-](F)(F)O3)ccc2c1
5. CC(C)(C)c1ccc(C2=C(Br)C3=C(c4ccccc4)c4c(Br)c(-c5ccc(C(C)(C)C)cc5)c(-c5ccc(C(C)(C)C)cc5)n4[B-](F)(F)[N+]3=C2c2ccc(C(C)(C)C)cc2)cc1
6. CCCCn1c(-c2ccc(-c3nnc(-c4ccc(-c5nc(-c6ccccc6)c(-c6ccccc6)n5CCCC)cc4)o3)cc2)nc(-c2ccccc2)c1-c1ccccc1

1: 0.233; 2: 0.43; 3: 0.24; 4: 0.43; 5: 0.09; 6: 0.69

###

- Test Name: photoluminescence quantum yield (fraction); solvent given as SMILES
- Settings: in ClCCl
Assign photoluminescence quantum yield to each entry below.
Answers are plain numbers.

# Compound, photoluminescence quantum yield
data = [
    ("c1ccc(C2c3ccccc3-c3cc4c(cc32)-c2ccccc2C4c2ccccc2)cc1 (centres undefined)", 0.36),
    ("CCCCOc1ccc(-c2cc3c(o2)c(-c2ccc(OCCCC)cc2)c2n3[B-](F)(F)[N+]3=Cc4c(-c5ccc(OCCCC)cc5)c5oc(-c6ccc(OCCCC)cc6)cc5n4[B-](F)(F)[N+]3=C2)cc1", 0.4),
    ("CCCCC(CC)Cn1c2cc(-c3ccc(N(c4ccccc4)c4ccccc4)cc3)c(C#N)cc2c2cc(C#N)c(-c3ccc(N(c4ccccc4)c4ccccc4)cc3)cc21 (centres undefined)", 0.8),
]

// returns reported photoluminescence quantum yield for input COc1cc(OC)cc(C2=[O+][B-](F)(F)OC(c3ccc4cc(OC)ccc4c3)=C2)c1
0.95

###

- Test Name: photoluminescence quantum yield (fraction); solvent given as SMILES
- Settings: in CO
Field: photoluminescence quantum yield. Provide a value for each of the molecules that follow.
Give bare numbers.

Examples from the recorded data:
# Molecule, Measurement Type, Val
records = [
    ("COC(=O)COc1ccc(/C=C/C2=[N+]3C(=C(c4ccc(N(C)C)cc4)c4c(C)cc(C)n4[B-]3(F)F)C(C)=C2)cc1", "photoluminescence quantum yield", 0.67),
    ("COc1c2ccccc2c(OC)c2c1c1cccc(OC)c1n2C", "photoluminescence quantum yield", 0.39),
    ("OB(O)c1ccc(-c2ccc(N(c3ccccc3)c3ccccc3)cc2)cc1", "photoluminescence quantum yield", 0.62),
    ("COC(=O)C(Cc1ccc2oc(-c3ccc(-n4c5ccccc5c5ccccc54)cc3)nc2c1)NC(=O)OC(C)(C)C (stereo not given)", "photoluminescence quantum yield", 0.36),
]

Then there is this molecule:
For the molecule F[B-]1(F)n2c(nc(Br)c2Br)-c2cccc[n+]21 , what photoluminescence quantum yield is on record?
0.31
